Hey, just so you know, these numbers are from PubChem BioAssay AID504332.

# System tested: Histone-lysine N-methyltransferase EHMT2 (Homo sapiens)
# Procedure summary: qHTS Assay for Inhibitors of Histone Lysine Methyltransferase G9a; also: % is scaled to controls: 0 for no effect and ±100 for the full control effect; nearly all actives have a fitted effect of over 75% in size
# Applied conditions: G9a H3K9 monomethylation, AlphaScreen, 2 h; series mostly up to 59 µM
Hit rate of the full screen: of about 350,000 compounds, about 31,000 (8.9%) were called active. Roughly 15% stayed inconclusive and do not appear here. What follows is part of a selection rich in actives, with near analogues and random picks from the rest.
Measured metric: activity, negative = inhibition

Compound: O=S(=O)(c1ccccc1)N1CCC(c2ccccc2)CC1
System tested: Histone-lysine N-methyltransferase EHMT2 (Homo sapiens)
Measured metric: activity, negative = inhibition
Value reported: 0.779% [at 2.33 µM] (inactive)
//
Compound: COc1ccccc1-n1cn[nH]c1=S
System tested: Histone-lysine N-methyltransferase EHMT2 (Homo sapiens)
Measured metric: activity, negative = inhibition
Value reported: -42.9% [at 12.7 µM] (inactive)
//
Compound: COc1ccc(C(=O)Nc2ccccc2C(=O)N/N=C/c2ccccc2OC)cc1
System tested: Histone-lysine N-methyltransferase EHMT2 (Homo sapiens)
Measured metric: activity, negative = inhibition
Value reported: 14.1% [at 0.501 µM] (inactive)
//
Compound: O=S(=O)(NCc1ccccc1Br)c1ccccc1Br
System tested: Histone-lysine N-methyltransferase EHMT2 (Homo sapiens)
Measured metric: activity, negative = inhibition
Value reported: 7.86% [at 2.33 µM] (inactive)
//
Compound: Cc1cccc(C)c1NC(=O)CN(C)C(=O)CCC(=O)c1ccccc1
System tested: Histone-lysine N-methyltransferase EHMT2 (Homo sapiens)
Measured metric: activity, negative = inhibition
Value reported: 11.7% [at 2.33 µM] (inactive)
//
Compound: O=C(OCC(=O)N1CCN(C(=O)c2ccco2)CC1)c1ccc(Cl)c(Cl)c1
System tested: Histone-lysine N-methyltransferase EHMT2 (Homo sapiens)
Measured metric: activity, negative = inhibition
Value reported: 16.1% [at 12.7 µM] (inactive)
//
Compound: O=C(CCNC(=O)c1ccccc1Cl)NCc1ccco1
System tested: Histone-lysine N-methyltransferase EHMT2 (Homo sapiens)
Measured metric: activity, negative = inhibition
Value reported: 4% [at 12.7 µM] (inactive)
//
Compound: COc1ccc(CCn2c(-c3ccco3)nc3nc4ccccc4nc32)cc1OC
System tested: Histone-lysine N-methyltransferase EHMT2 (Homo sapiens)
Measured metric: activity, negative = inhibition
Value reported: -36.8% [at 12.7 µM] (inactive)
//
Compound: CC1CCN(CC(O)COc2ccc(C(=O)c3ccccc3)cc2)CC1 (configuration not stated)
System tested: Histone-lysine N-methyltransferase EHMT2 (Homo sapiens)
Measured metric: activity, negative = inhibition
Value reported: 3.75% [at 0.501 µM] (inactive)
//
Compound: Cc1cccc(NC(=O)Nc2ccc(OCc3ccccc3)cc2)n1
System tested: Histone-lysine N-methyltransferase EHMT2 (Homo sapiens)
Measured metric: activity, negative = inhibition
Value reported: 8.02% [at 2.33 µM] (inactive)
//
Compound: CCN(CC(=O)NCc1ccc(Cl)cc1)C(=O)CSc1ccccc1
System tested: Histone-lysine N-methyltransferase EHMT2 (Homo sapiens)
Measured metric: activity, negative = inhibition
Value reported: -1.68% [at 12.7 µM] (inactive)
//
Compound: CN(C)CCCNC(=O)c1ccc2[nH]c3ccccc3c2c1
System tested: Histone-lysine N-methyltransferase EHMT2 (Homo sapiens)
Measured metric: activity, negative = inhibition
Value reported: 38.1% [at 0.501 µM] (inactive)
